# PROTOCOL_TEXT: qHTS assay to identify small molecule agonists of the retinoic acid receptor (RAR) signaling pathway (AID 1159553)
# REPORTED_CONDITIONS: C3RL4 RARE luciferase reporter, agonist, 6 h; series mostly up to 73.3 µM
Records with an inconclusive call do not appear. The source made the active and inactive calls. The call rests on the fitted dose curve; in most records, active means well fitted activation curve with a large enough effect in the repeat runs; inconclusive means weak or mixed curves, or effect the other way; inactive means no such curve, though single readings can be large or run the other way.
Use one of these outcomes when replying: 1 = active, -1 = inactive

compound=C/C=C/c1ccc(OCC)c(O)c1 category=1

Which outcome was entered for the compound CO[Si](OC)(OC)c1ccccc1 in this test?
-1

Now the same for CCN(CC)c1ccc2c(C)cc(=O)oc2c1
-1

Now the same for N[C@@H]1CONC1=O
-1

Now the same for Cc1ccc(S(=O)(=O)Oc2ccc(N=Nc3ccc(-c4ccc(N=Nc5c(O)ccc6cc(S(=O)(=O)O)cc(S(=O)(=O)O)c56)c(C)c4)cc3C)cc2)cc1
-1

Now the same for CCCCCCCCCCCC[N+](C)(C)C
-1

Now the same for Nc1cc(Cl)c(-c2cc(Cl)c(N)cc2Cl)cc1Cl
-1

Now the same for NCCCCCC(=O)O
-1

Now the same for CC(C(O)c1ccc(O)cc1)N1CCC(Cc2ccccc2)CC1 (configuration not stated)
-1

Now the same for CCC(C)(C)C(=O)O[C@H]1C[C@@H](C)C=C2C=C[C@H](C)[C@H](CC[C@@H]3C[C@@H](O)CC(=O)O3)[C@H]21
-1

Now the same for O=C(O)c1cc(Cl)cc(Cl)c1
-1

Now the same for O=C(O)Cn1cnnn1
-1
